SOCE level (percentage of inhibition) overview
test system: SOCE (store operated calcium entry) in CHO cells; experiment: Assay of SOCE (store operated calcium entry)-inhibiting action; format: cell-based, Chinese hamster; conditions: test compound 10 μmol; CHO cells, thapsigargin
Kindly provide the numeric value in % only, without the unit symbol.

For orientation, consider the following solved cases.
Compound: O=C(CCN(CCO)CCO)c1ccco1
System Tested: SOCE (store operated calcium entry) in CHO cells
Readout Number: 0

Compound: O=C(CCNCCSSCCNCCC(=O)c1ccsc1)c1ccsc1
System Tested: SOCE (store operated calcium entry) in CHO cells
Readout Number: 4

Compound: CN(CCC(=O)c1ccc2ccccc2c1)Cc1ccccc1
System Tested: SOCE (store operated calcium entry) in CHO cells
Readout Number: 0

Compound: CC(C)N(CCC(=O)c1ccc(Cc2ccccc2)cc1)Cc1ccccc1 [Example 103]
System Tested: SOCE (store operated calcium entry) in CHO cells
Readout Number: 10

Compound: CCc1nccnc1C(=O)CCN(CCO)C(C)C
System Tested: SOCE (store operated calcium entry) in CHO cells
Readout Number: 0

// next item, SOCE level (percentage of inhibition) requested
Just so you know, measured SOCE level (percentage of inhibition) for O=C(CCNCCSSCCNCCC(=O)c1ccc2ccccc2c1)c1ccc2ccccc2c1 came out at 0
